src = the supplement of paper PMC11417369

- System: PfAP2-G AP2 domain (GST-tagged)
- Assay overview: gcPBM binding intensity (ln(normalized median fluorescence intensity)); higher = stronger DNA binding
The full ranking holds about 25,000 sequences; the median of “ln(normalized median fluorescence intensity)” is about 10, and the highest 2% start at about 12. The list comes from a sample in which the highest values are over-represented; it also holds close analogues and randomly drawn sequences.
Known gcPBM binding intensity (ln) of a selection of sequences

Sequence record | gcPBM binding intensity (ln)
TATATATTCCTCCATAGTACAATAATAAAGATAAAA [XGTACX_site5785] | 10.6
TTTTTTTTTTTATGTGCACACAAAAGATGCTTATAT [CACACA_site2347] | 10.6
AGAGTATATATATATGCATGCATATCTCATATTTAT [TGCATGCA_site509] | 9.71
TTTTCTTTTTTCTGTTGTACTAAAAATAATTTTGTA [XGTACX_site5171] | 11.3
ATATATATATAATTTGTACACACAAATATGCATATA [CACACA_site9136] | 11.3
ATATACTATATTTTAACACACAAAAAAAAAAAATAT [CACACA_site1091] | 9.98
TAATGCATTTTCGCATGTACATATTTCTCTTTATAT [XGTACX_site8915] | 11.1
ATATATATAATTTGTACACACAAATATGCATATATA [CACACA_site3432] | 11.3
CATATGTAGGGAACAATATAATATGCTTTGAATATG [GTGCAC_negctrl_site524] | 10.2

====

Known gcPBM binding intensity (ln) of a selection of sequences
- Test system: PfAP2-G AP2 domain (GST-tagged)
- Assay overview: gcPBM binding intensity (ln(normalized median fluorescence intensity)); higher = stronger DNA binding
Whole data set: some 25,000 sequences, median “ln(normalized median fluorescence intensity)” near 10, cut for the highest 2% near 12. The list comes from a sample in which the highest values are over-represented; it also holds close analogues and randomly drawn sequences.

Sequence record | gcPBM binding intensity (ln)
AAAATATATATATATATATATATATGTATACTCCTA [XGTACX_negctrl_site312] | 10
AGTCTGAATAAAATTACACACATATACAGATATATA [CACACA_site5054] | 9.8
AATATAAATAAAAACACACACACACCCATATATATA [CACACA_site2267] | 10.1
GCGTAATCTATTTGCACACTTATTTGTTCTTAAAAA [CACACA_site672] | 10.2
AATATAAAAAAAAAATGTACATATTATATATATATA [XGTACX_site5113] | 11.1
ACGTATCAATTTATTGGTACACATAAATATATATAT [XGTACX_site5556] | 11.3
ATATATTTATTTTGTGCACACAACGCAAACCTTTTA [CACACA_site3508] | 10.5
ATATATATATAGTACGCACACATAGTTGTACATTAA [CACACA_site2787] | 12
GTTACAGAGAATGTTGTGCACATATCAATAATATAT [GTGCAC_site9671] | 10.5

====

- System: PfAP2-G AP2 domain (GST-tagged)
- Assay overview: gcPBM binding intensity (ln(normalized median fluorescence intensity)); higher = stronger DNA binding
Over roughly 25,000 sequences, “ln(normalized median fluorescence intensity)” has its median near 10; the highest 2% begin near 12. The list comes from a sample in which the highest values are over-represented; it also holds close analogues and randomly drawn sequences.

Sequence record | gcPBM binding intensity (ln)
ACATAATAAAAATAAATTCATAAGTAAATAAATAAA [TGCATGCA_negctrl_site186] | 9.88
TAATACATACACACATGTACATACAGAAATAAATAA [XGTACX_site3245] | 11.2
GATATATATATTCACACACACATGGAAATATATATA [CACACA_site382] | 9.88
ATATATGACAAATGTAGTACAAATTATTGTATCATA [XGTACX_site3675] | 11.4
CATATATACGCATACACACACACACCCACACCCACA [CACACA_site1725] | 10.6
AATTAGATGGATAAATGTACATAATGTGAATATATT [XGTACX_site86] | 11
TATACAATATTTATAACACACATATTTATATAAACT [CACACA_site6932] | 9.88
TGTAGAGCGCAAAGTAGTACTACAAATTATGGAGGG [XGTACX_site3022] | 11.8
TAAAAATGGGAGGGGTGTACTACACAATAAAATTAT [XGTACX_site5641] | 11.6
CACCCACCCACATACACACACATACACATATATATA [CACACA_site1722] | 10.2
ATAACATAACATAATACACACATATAAAAAAGAAAT [CACACA_site3028] | 10.1
ACCTAAAATAACTACACACACATAAAAAAAAAAAAA [CACACA_site2529] | 10.1
CATATTCCCCCCCACACACACACACCCATACATACC [CACACA_site2303] | 11.7
TAAAAATAAAGAAAATGTACATAAATAATAATACAT [XGTACX_site2278] | 11.2
CATACACCCATACATACACACATACATATATATATA [CACACA_site8591] | 10.2
TTAAAAGAAAATAGGTGTACACATAATATATACATA [XGTACX_site7697] | 11.8
GACATATTCCCCCCCACACACACACCCACATACATA [CACACA_site2302] | 11.8
TATTCCCCCCAACACACACACACACCGACATACCAC [CACACA_site8723] | 11.8
AAAGAAAATAGGTGTACACATAATAAATACAGCTAT [CACACA_site5917] | 11.7

====

- System: PfAP2-G AP2 domain (GST-tagged)
- Assay overview: gcPBM binding intensity (ln(normalized median fluorescence intensity)); higher = stronger DNA binding
Over roughly 25,000 sequences, “ln(normalized median fluorescence intensity)” has its median near 10; the highest 2% begin near 12. For the sample, the highest values were picked, then their nearest neighbours and some sequences at random.
Known gcPBM binding intensity (ln) of a selection of sequences

Sequence record | gcPBM binding intensity (ln)
TATAAAATATATATCTGTACGTATTTTATTTTTTAT [XGTACX_site6257] | 11.4
AGTTTCCATATGAGGTGTACATATATAATTTATTAT [XGTACX_site2369] | 11.6
TAAAAATAATATATTTGTACATATGTGTATACATAA [XGTACX_site741] | 10.7
AATGTTAAAAATGAAAGTACATGGAATTTATTATTT [XGTACX_site4095] | 11
AAATTAAATAAATTTACACACTAAAAATTACAGATA [CACACA_site4722] | 9.88
TCCTCTTCAATATATATATATTATAAATAAATAAAT [CACACA_negctrl_site1756] | 9.91
TTATGATATATTTGTTGTACGCTTTTTTTATGAACT [XGTACX_site573] | 11.8
AATATCTAAAATGTGTGTACATAATATTTTTAATAT [XGTACX_site3831] | 11.7
AATAAAAAAAATTTCTGTACATATATTTATTATATA [XGTACX_site1883] | 11.1
TATATATTATATATATGTACATAATTCCATGTTTAG [XGTACX_site3943] | 11.2
TTTATATATTTTAGGTGTACATAAATTTTTATATAT [XGTACX_site5597] | 11.7
AATTTTTTAAATGTGTGTACATATTATTTAAATAAT [XGTACX_site5967] | 11.5
ATAAATACTTTTTGGTGTACACTTTTAAATGAAAAA [XGTACX_site3042] | 11.8
CATACATTTAAAAAGTGTACGTATATGAAAAAAGGA [XGTACX_site6512] | 11.7
TTTATATATTTTAGGAGTACATTAAATTATACCTTA [XGTACX_site5600] | 11.5
AATAGTTATTCCAGGTGTACATAACATATAATTTAC [XGTACX_site1340] | 11.5
TTATATATTTATAAATGTACATATAATTTTTTTATA [XGTACX_site4696] | 11.1
ATGTATATATATTTGTGTACATATTTAGGAAATAAA [XGTACX_site2904] | 11.6
CCCACGTATATTTTGTGTACATAAATAAATAAATAA [XGTACX_site4046] | 11.6

====

- Tested on: PfAP2-G AP2 domain (GST-tagged)
- Assay overview: gcPBM binding intensity (ln(normalized median fluorescence intensity)); higher = stronger DNA binding
In all, about 25,000 sequences were measured (“ln(normalized median fluorescence intensity)”: median about 10, highest 2% from about 12 on). What follows is part of a selection rich in the highest values, with near analogues and random picks from the rest.

Sequence record | System tested | gcPBM binding intensity (ln)
ATATAATAATATTATACATGCAAAATATGTTCTTCA [TGCATGCA_site115] | PfAP2-G AP2 domain (GST-tagged) | 9.79
TATTTTAACATTAGGTGTACATACAAAAATAAAAAT [XGTACX_site8577] | PfAP2-G AP2 domain (GST-tagged) | 11.6
TATTTAAATTAATATTGTACATATATTTATAATATA [XGTACX_site6109] | PfAP2-G AP2 domain (GST-tagged) | 11.1
TCTTTAAATTTCTCAACACACAGTTATAAAAAATAA [CACACA_site2856] | PfAP2-G AP2 domain (GST-tagged) | 9.8
TAATTGTACGCCAATACACACAGAATTATAATGTAG [CACACA_site6201] | PfAP2-G AP2 domain (GST-tagged) | 11.5
TAATTGTACGCCAATACACACAGAATTAAAATGTAG [CACACA_site4234] | PfAP2-G AP2 domain (GST-tagged) | 11.6
AATTTATTAGATAGATGTACATTTTAATAAAAGTAG [XGTACX_site6819] | PfAP2-G AP2 domain (GST-tagged) | 11.1
TATATATATATTATATGTACACAAGGAAATATGCAT [XGTACX_site5637] | PfAP2-G AP2 domain (GST-tagged) | 11.5
ATAAAACAAATGAGTACACACACATAAAAATTGAAA [CACACA_site7949] | PfAP2-G AP2 domain (GST-tagged) | 11.6
TACTTTTCATCTTCTTAACACACAAAAAAAAAAAAA [CACACA_site9290] | PfAP2-G AP2 domain (GST-tagged) | 10.1
TATTTTAATTTTTGTTGTACGCAAATGTGAGGGCAT [XGTACX_site4663] | PfAP2-G AP2 domain (GST-tagged) | 11.7
AAAACAAATGAGTACACACACATAAAAGTTGAAAAT [CACACA_site6238] | PfAP2-G AP2 domain (GST-tagged) | 11.8
TATTTGTGCCAAAAATGAAAAAGTTTGTATAAAACC [CACACA_negctrl_site1406] | PfAP2-G AP2 domain (GST-tagged) | 10.1
TTTGTTAATATAAAAACACACAAAAATAACATAAAA [CACACA_site2619] | PfAP2-G AP2 domain (GST-tagged) | 10.2
CAAAAATAATTTAGGTGTACAAATTTGACAAAAAAA [XGTACX_site188] | PfAP2-G AP2 domain (GST-tagged) | 11.7
AAAATAAACCCAGACACACTCATTAAAAAATATCAT [CACACA_site5903] | PfAP2-G AP2 domain (GST-tagged) | 9.95
CTTTATATATTTTATTGTACTTAAAAAAAAAAAAAA [XGTACX_site2134] | PfAP2-G AP2 domain (GST-tagged) | 11.4
GACATTAAAATGAAATATACATATATATGTATATAT [TGCATGCA_negctrl_site601] | PfAP2-G AP2 domain (GST-tagged) | 9.63
ACAGTATCTGGTAGCTGTACGAGTCGTAGAGAGTAG [XGTACX_site2041] | PfAP2-G AP2 domain (GST-tagged) | 11.2
